Test system: NCI-H23 lung
EXPERIMENT NOTES: NCI-60 one-dose screen, 48 h
EXPERIMENTAL PARAMETERS: 10 µM unless noted
This is part of a sample that, as a whole, favours compounds with a hit. Of some 83,000 tested, about 20% had one in any assay. The source made the active and inactive calls. The calls were made as follows: active = growth percent below 10; inactive = the rest.
Please state which outcome applies, choosing from T = active, F = inactive

What did this assay record as the result for COc1ccc2c(c1)c(/C(O)=C1\COC(=O)C1=O)cn2Cc1ccc(F)cc1 ? F

What did this assay record as the result for N#Cc1c(-c2ccccc2)nc(SCC(O)CN2CCOCC2)nc1N1CCOCC1 (stereo not given) ? F

What did this assay record as the result for NC(=O)c1c(NC(=O)c2cccs2)sc2c1CCC(=O)C2 ? F

What did this assay record as the result for COc1cc2nc3sc(C(=O)Nc4ccc(C(=O)OC(C)C)cc4)c(C(=O)Nc4ccc(Cl)cc4C)n3c(=O)c2cc1OC ? F

What did this assay record as the result for NS(=O)(=O)c1ccc(-c2cc(-c3nnc(SCC(=O)Nc4ccc(C(=O)/C=C/c5ccc(Cl)cc5)cc4)n3-c3ccccc3)c3ccccc3n2)cc1 ? F

What did this assay record as the result for Nc1ncnc2c1N=C(c1ccc3c(c1)OCO3)CC(c1cccc(Nc3ccnc4cc(C(F)(F)F)ccc34)c1)N2 (stereo not given) ? F

What did this assay record as the result for CCN1C(=O)N(CC)C2C1NN=c1s/c(=C\c3ccc(C(F)(F)F)cc3)c(=O)n12 (stereo not given) ? F

---

System: SF-295 CNS
EXPERIMENT NOTES: NCI-60 one-dose screen, 48 h (100 = growth as untreated, 0 = no growth, -100 = all killed)
EXPERIMENTAL PARAMETERS: 10 µM unless noted
About 83,000 compounds went through this panel and 20% of them were active in at least one assay; those are over-represented in the sample as a whole.
ASSAY METRIC: growth (%)
The response must be a number in % with no trailing unit.

Nc1[nH]n2cc(-c3ccc(F)cc3)nc2c1N=Nc1ccc(S(N)(=O)=O)cc1 = 98.2
CN1CCN(Cc2ccc(NC(=O)c3cncc(C#Cc4cnc(N)c5ncccc45)c3)cc2C(F)(F)F)CC1 = 31.2
Cc1ccc2c(-c3nnc(N)s3)cc(=O)oc2c1C = 97.4
CN(C)CCCC1(c2ccc(F)cc2)OCc2cc(-c3ccc4cc[nH]c4c3)ccc21 (stereo not given) = 74.5

Proceed to the following item.
Form: molecule = CSC1=Nc2c(c(C)c(-c3ccccc3)n2CCCC(=O)O)C2=NC(=O)C[C@H](C)N12 ; growth = 106

---

Test system: M14 melanoma
EXPERIMENT NOTES: NCI-60 one-dose screen, 48 h (100 = growth as untreated, 0 = no growth, -100 = all killed)
EXPERIMENTAL PARAMETERS: 10 µM unless noted
The panel holds about 83,000 compounds, 20% with a hit somewhere; the sample as a whole holds those more often. Activity calls are given as the source filed them. The calls were made as follows: active = growth percent below 10; inactive = the rest.
ASSAY METRIC: growth

CC(=C(c1ccc(OCCN2CCCCC2)cc1)c1ccc(OCCN2CCCCC2)cc1)c1ccc(Cl)cc1 = -81.9% (active)
CC[N+]1(CC)CC[N+]2(CCCC(C)CC2)CC1 (centres undefined) = 106% (inactive)
O=C(Nc1ncc(Cc2ccccc2)s1)c1ccc2c(c1)OCCCO2 = 3.29% (active)

Form: compound = C#CCn1cnc2cnc(Nc3cccc(NC(=O)C=C)c3)nc21 ; growth = 62% [6.25 µM] (inactive)

Form: compound = COc1ccc(/C=C(/c2ccccc2)[N+](=O)[O-])c(OC)c1 ; growth = 5.14% (active)

Form: compound = CNC(=O)c1cc(Oc2cccc3nc(NC(=O)Nc4cc(C(F)(F)F)ccc4Cl)ccc23)ccn1 ; growth = 95.1% (inactive)

Form: compound = COc1ccc(/C(C)=C(/c2ccc(OCCCN(C)C)cc2)c2ccc(OC(=O)c3ccccc3)cc2)cc1 ; growth = 66.4% (inactive)

Form: compound = CN1CCN(Cc2ccc(NC(=O)c3cncc(C#Cc4cnc(N)c5ncccc45)c3)cc2C(F)(F)F)CC1 ; growth = -87% (active)
